# run conditions: human gut metagenome, 24 h, 2 µM; further: call rule not given here
measured parameter: Bacterial Biotransformation

compound: CC(C)[C@H]1CC[C@H](C(=O)N[C@H](Cc2ccccc2)C(=O)O)CC1 [NATEGLINIDE]
Bacterial Biotransformation: Compound metabolized
--
compound: CC[C@@]1(O)C(=O)OCc2c1cc1n(c2=O)Cc2cc3c(CN(C)C)c(O)ccc3nc2-1 [TOPOTECAN]
Bacterial Biotransformation: Compound NOT metabolized
--
compound: O=P1(N(CCCl)CCCl)NCCCO1 (stereo not drawn) [CYCLOPHOSPHAMIDE ANHYDROUS]
Bacterial Biotransformation: Compound NOT metabolized
--
compound: CC(=O)O[C@H]1C(=O)[C@@]2(C)[C@H]([C@H](OC(=O)c3ccccc3)[C@]3(O)C[C@H](OC(=O)[C@H](O)[C@@H](NC(=O)c4ccccc4)c4ccccc4)C(C)=C1C3(C)C)[C@]1(OC(C)=O)CO[C@@H]1C[C@@H]2O [PACLITAXEL]
Bacterial Biotransformation: Compound NOT metabolized
--
compound: C[C@]12CCC(=O)C=C1[C@@H]1C[C@@H]1[C@H]1[C@@H]3[C@@H]4C[C@@H]4[C@@]4(CCC(=O)O4)[C@@]3(C)CC[C@@H]12 [DROSPIRENONE]
Bacterial Biotransformation: Compound metabolized
--
compound: N#Cc1ccc2[nH]cc(CCCCN3CCN(c4ccc5oc(C(N)=O)cc5c4)CC3)c2c1 [VILAZODONE]
Bacterial Biotransformation: Compound metabolized
--
compound: CC1Cc2ccccc2N1NC(=O)c1ccc(Cl)c(S(N)(=O)=O)c1 (stereo not drawn) [INDAPAMIDE]
Bacterial Biotransformation: Compound NOT metabolized

Consider the additional compound presented here.
Record summary for `N[C@@H](Cc1ccc(N(CCCl)CCCl)cc1)C(=O)O` : reported Bacterial Biotransformation = Compound metabolized

====

# test protocol: The drug is tested on Z-005 corresponding to metagenome with ENA study accession number: PRJEB37062 and ENA sample accession number: ERS12561805 for biotransformation under anaerobic condition. The drug concentrations were measured over 9 timepoints collected between 0 and 24 hours of incubation by liquid-chromatography-coupled mass spectrometry (LC–MS)
# run conditions: 2 µM
measured parameter: Bacterial Biotransformation

Solved entries:
molecule: CC(=O)Nc1ccc(OC(C)=O)cc1 [DIACETAMATE]
Bacterial Biotransformation: Compound metabolized
//
molecule: CCN(C(C)=O)c1cccc(-c2ccnc3c(C#N)cnn23)c1
Bacterial Biotransformation: Compound NOT metabolized
//
molecule: COC1=C(OC)C(=O)C(CCCCCCCCCCO)=C(C)C1=O
Bacterial Biotransformation: Compound metabolized
//
molecule: CC(=O)OCC(=O)[C@@]1(OC(C)=O)[C@@H](C)C[C@H]2[C@@H]3C[C@H](F)C4=CC(=O)C=C[C@]4(C)[C@@]3(F)[C@@H](O)C[C@@]21C [DIFLORASONE DIACETATE]
Bacterial Biotransformation: Compound metabolized
//
molecule: CN1CCC(OC(c2ccccc2)c2ccccc2)CC1
Bacterial Biotransformation: Compound NOT metabolized
//
molecule: COC(=O)[C@H](c1ccccc1Cl)N1CCc2sccc2C1.O=S(=O)(O)O [CLOPIDOGREL BISULFATE]
Bacterial Biotransformation: Compound metabolized
//
molecule: CCOC(=O)C1=C[C@]2(CC)CCCN3CCc4c(n1c1ccccc41)[C@@H]32
Bacterial Biotransformation: Compound NOT metabolized

# Bacterial Biotransformation (molecule: CN(C)CCOC(C)(c1ccccc1)c1ccccn1.O=C(O)CCC(=O)O (stereo not drawn) [DOXYLAMINE SUCCINATE] ) is Compound NOT metabolized
